Hey, just so you know, these numbers are from ChEMBL document CHEMBL1201862.

Recorded GI50 for the following molecules
# Test system: SNB-75
# experimental_protocol: NCI tumour cell line growth inhibition, 48 h
Active and inactive are the calls of the source. No stated cut-off is given here; in the data, active = GI50 up to about 1.1 µM and inactive = higher.

Example cases with answers are listed next.
CN(CCCN(C)Cc1ccc(Cl)c(Cl)c1)CCN1CCCC1
19.1 µM (inactive)
O=C(CC(=O)N(C(=O)c1ccccc1)c1ccc(Cl)cc1)N/N=C\c1ccccc1O
22.9 µM (inactive)
CCC/C(Cl)=N\OC(=O)Nc1cccc(C(F)(F)F)c1
10.4 µM (inactive)
COc1ccc2c(c1)[C@@H]1c3cc(OC)c(OC)cc3CCN1CCC2
> 100 µM (inactive)
CCOC(=O)C1([Se]c2ccccc2)CCCC1=O (stereo unspecified)
23.6 µM (inactive)

Moving on to the next molecule.
Record Cc1ccccc1C(C#N)C(=O)C(=O)Nc1cccc(Cl)c1 (stereo unspecified) ; system SNB-75; GI50 = > 100 µM (inactive)

###

# Tested on: HT-29
# experimental_protocol: NCI tumour cell line growth inhibition, 48 h
Calls of active or inactive are those of the source. No stated cut-off is given here; in the data, active = GI50 up to about 1.1 µM and inactive = higher.
Use one of these outcomes when replying: active, inactive

Example cases with answers are listed next.
CS(=O)(=O)Nc1ccc(NCc2c[nH]c3ccc4ncccc4c23)cc1
inactive
NC(CCOCCP(=O)(O)O)C(=O)O (stereo not drawn)
inactive
CC(C)(C)[Si](C)(C)O/N=C\c1cccc(O[Si](C)(C)C(C)(C)C)c1
inactive
O=C1c2ccccc2C(=O)c2sc(Nc3ccc(Cl)cc3)nc21
inactive
O=C1N[C@H](C(=O)O)[C@@H](c2ccc(OCc3ccccc3)cc2)O1
inactive
CCOC(=O)C(CNc1ccc(O)cc1)NC(=O)c1ccccc1 (stereo not drawn)
inactive
Cc1cc(Cl)ccc1/N=N/C(=O)NNc1ccc(Cl)cc1C
inactive
COC(=O)c1c(O)ccc2c1c1cc3ccccc3c(O)c1n2CCc1ccc(OC)c(OC)c1
inactive
CCN(CC)c1c(-c2c(OC(C)C)c(=O)c2=O)c(=O)n2ccsc2c1OC(C)=O
inactive
COc1ccc2c(c1)[C@@H]1c3cc(OC)c(OC)cc3CCN1CCC2
inactive

Enquiry: Look up the recorded call for O=C1C=C2S[C@H]3C[C@]2(C=C1Br)C1=C(N3)C(=O)c2[nH]cc3c2C1=NCC3 [(+)-DISCORHABDIN B] in this test.
Return: active

Enquiry: Look up the recorded call for "O=c1c2ccccc2n2nnc3ccc(NCCCNCCNCCCNc4ccc5nnn6c7ccccc7c(=O)c4c56)c1c32" in this test.
Return: active

Enquiry: Look up the recorded call for "COc1ccc(OC)c2cc(C3(C)SCCCS3)ccc12" in this test.
Return: inactive

###

# Test system: HOP-62
# experimental_protocol: NCI tumour cell line growth inhibition, 48 h
Structures can show the parent of a compound that is named as a salt. The source made the active and inactive calls. Rule as the data show it: active = GI50 up to about 1.1 µM and inactive = higher.
Recorded GI50 for the following compounds

C=C(C#N)C1OCC2OC(C)(C)OC21 (configuration not stated)
> 100 µM (inactive)
O=C(O)C1C(C(=O)O)C(C(=O)O)C1C(=O)O (configuration not stated)
> 100 µM (inactive)

Record CC(=O)N(O)CCCCCNC(=O)CCC(=O)N(O)CCCCCNC(=O)CCC(=O)N(O)CCCCCN [DEFEROXAMINE HYDROCHLORIDE] ; system HOP-62; GI50 = 18.4 µM (inactive)

Record "Cc1c2cccc-2c(OCCO)cc2c3ccccc3n(C)c12" ; system HOP-62; GI50 = 2.56 µM (inactive)

Record CN(CCCCCl)P(=O)(OCc1ccc([N+](=O)[O-])o1)OCC1OC(n2ccc(N)nc2=O)C(O)C1O (configuration not stated) ; system HOP-62; GI50 = 10.6 µM (inactive)

Record CC(CC(C#N)(c1ccccc1)c1ccccc1)N1CCCCC1 (configuration not stated) ; system HOP-62; GI50 = 29.2 µM (inactive)

Record CC1C[C@]2(C)C(NCCN)=Nc3ccccc3[C@@H]2N(C)c2ccccc21 (some centres not stated) ; system HOP-62; GI50 = 16.1 µM (inactive)
